- measurementNotes: In vivo pharmacokinetic study in male ICR mice (compound alone)
- appliedConditions: male, ICR, mouse, plasma, po, 10 mg/kg, PO 10 mg/kg (10MPK), mean of mice 4#-6#; read-out: T1/2, Mean (converted)
- Experimental: The pharmacokinetics profile of the newly developed antiviral compound C5N17B was subsequently evaluated in male ICR mice that were free from specific pathogens, aiming to assess its potential for therapeutic application in vivo. A total of six male ICR mice were randomly assigned to two groups. […] All samples were quantified using an LC‐MS/MS‐AR Triple Quad 5500+ (SCIEX, USA) and the ExionLC liquid phase system. […] The pharmacokinetic parameters were calculated by WinNolin 8.2 software.
reportedProperty: half-life

1. Cc1cncc(C(=O)N2C[C@H]3CC[C@@H](C2)N3[C@H](c2cccc(F)c2)c2cn(CCc3ccsc3)nn2)c1 [Compound C5N17B]
3.55 h

* * *

- measurementNotes: In vivo pharmacokinetic study in male ICR mice (compound alone)
- appliedConditions: male, ICR, mouse, plasma, po, 10 mg/kg, PO 10 mg/kg, individual mice 4#-6#; read-out: AUC0-t
reportedProperty: AUC(0-t)

1) Cc1cncc(C(=O)N2C[C@H]3CC[C@@H](C2)N3[C@H](c2cccc(F)c2)c2cn(CCc3ccsc3)nn2)c1 [Compound C5N17B]
30.4 ng·h/mL

* * *

- measurementNotes: In vivo pharmacokinetic study in male ICR mice (compound alone)
- appliedConditions: male, ICR, mouse, plasma, iv, 2 mg/kg, IV 2 mg/kg, mean of mice 1#-3#; read-out: Cmax, Mean
reportedProperty: Cmax (ng/mL)

1. Cc1cncc(C(=O)N2C[C@H]3CC[C@@H](C2)N3[C@H](c2cccc(F)c2)c2cn(CCc3ccsc3)nn2)c1 [Compound C5N17B]
237

* * *

- measurementNotes: In vivo pharmacokinetic study in male ICR mice (compound alone)
- appliedConditions: male, ICR, mouse, plasma, iv, 2 mg/kg, i.v. 2 mg kg^−1, male ICR mice, n = 3; read-out: AUC0‐t, i.v.
reportedProperty: AUC (ng·h/mL)

1) Cc1cncc(C(=O)N2C[C@H]3CC[C@@H](C2)N3[C@H](c2cccc(F)c2)c2cn(CCc3ccsc3)nn2)c1 [Compound C5N17B]
63.6

* * *

- measurementNotes: In vivo pharmacokinetic study in male ICR mice (compound alone)
- appliedConditions: male, ICR, mouse, plasma, po, 10 mg/kg, p.o. 10 mg kg^−1, male ICR mice; read-out: Cmax, p.o.
reportedProperty: Cmax (nM)

1) Cc1cncc(C(=O)N2C[C@H]3CC[C@@H](C2)N3[C@H](c2cccc(F)c2)c2cn(CCc3ccsc3)nn2)c1 [Compound C5N17B]
78.6

* * *

# pIC50 annotations
- systemUnderTest: SARS‐CoV‐2 M^pro (Severe acute respiratory syndrome coronavirus 2)
- measurementNotes: SARS‐CoV‐2 main protease enzymatic assay (FRET inhibitor screening kit)
- Assay type: biochemical
- appliedConditions: purified compounds, FRET assay
pIC50: −log10 of the molar value.
reportedProperty: pIC50

1. O=C(c1cccnc1)N1CCN(C(c2cccc(F)c2)c2cn(CCc3ccsc3)nn2)CC1 (centres unmarked) [Compound C4N17]
5.73
2. O=C(c1cccnc1)N1CCN(C(c2cccc(F)c2)c2cn(CCN3C(=O)c4ccccc4C3=O)nn2)CC1 (centres unmarked) [Compound C4N21]
5.89

* * *

- measurementNotes: In vivo pharmacokinetic study in male ICR mice (compound alone)
- appliedConditions: male, ICR, mouse, plasma, iv, 2 mg/kg, IV 2 mg/kg, individual mice 1-3; read-out: MRTlast
reportedProperty: MRT last (min)

1) Cc1cncc(C(=O)N2C[C@H]3CC[C@@H](C2)N3[C@H](c2cccc(F)c2)c2cn(CCc3ccsc3)nn2)c1 [Compound C5N17B]
5.42

* * *

- measurementNotes: In vivo pharmacokinetic study in male ICR mice (compound alone)
- appliedConditions: male, ICR, mouse, plasma, po, 10 mg/kg, p.o. 10 mg kg^−1, male ICR mice, n = 3; read-out: AUC0‐t, p.o.
reportedProperty: AUC (ng·h/mL)

1. Cc1cncc(C(=O)N2C[C@H]3CC[C@@H](C2)N3[C@H](c2cccc(F)c2)c2cn(CCc3ccsc3)nn2)c1 [Compound C5N17B]
41.3

* * *

Some compounds, each annotated with its measured CC50 at 2 day.
- measurementNotes: in vitro
- appliedConditions: human
reportedProperty: CC50 at 2 day

1. O=C(c1cccnc1)N1CCN(C(c2cccc(F)c2)c2cn(CCc3ccsc3)nn2)CC1 (centres unmarked)
> 100 µM
2. O=C(c1cccnc1)N1CCN(C(c2cccc(F)c2)c2cn(CCN3C(=O)c4ccccc4C3=O)nn2)CC1 (centres unmarked)
> 100 µM

* * *

- measurementNotes: in vivo
- appliedConditions: male, ICR, mouse, po, 10 mg/kg, AUC0-∞, C5N17B+Ritonavir, PO 10 mg/kg, individual mice 1#-3#
reportedProperty: AUC(0-inf) (ng·h/mL)

1. Cc1cncc(C(=O)N2C[C@H]3CC[C@@H](C2)N3[C@H](c2cccc(F)c2)c2cn(CCc3ccsc3)nn2)c1 [Compound C5N17B]
10400

* * *

- measurementNotes: in vivo
- appliedConditions: male, ICR, mouse, po, 10 mg/kg, MRT0-t, Mean, C5N17B+Ritonavir, PO 10 mg/kg, mean of 3 mice
reportedProperty: MRT last (h)

1. Cc1cncc(C(=O)N2C[C@H]3CC[C@@H](C2)N3[C@H](c2cccc(F)c2)c2cn(CCc3ccsc3)nn2)c1 [Compound C5N17B]
3.15

* * *

- systemUnderTest: UniProt:P0DTD1
- measurementNotes: SARS‐CoV‐2 main protease enzymatic assay (FRET inhibitor screening kit)
- Type: biochemical
Measured inhibition of M^pro enzymatic activity, first round of screening of individual entries
reportedProperty: inhibition of M^pro enzymatic activity, first round of screening (%)

1. Cc1cncc(C(=O)N2C[C@H]3CC[C@@H](C2)N3C(c2cccc(F)c2)c2cn(CS(=O)(=O)c3ccccc3)nn2)c1 (stereo partly shown)
101
2. O=C(c1cccnc1)N1C[C@H]2CC[C@@H](C1)N2C(c1cccc(F)c1)c1cn(CCc2ccsc2)nn1 (stereo partly shown)
90
3. O=C(c1cccnc1)N1CCN(C(c2cccc(F)c2)c2cn(CCN3C(=O)c4ccccc4C3=O)nn2)CC1 (stereo not shown)
82
4. Cc1cncc(C(=O)N2C[C@H]3CC[C@@H](C2)N3C(c2cccc(F)c2)c2cccc(F)c2)c1 [AA‐625, reference compound]
57
5. Cc1cncc(C(=O)N2C[C@H]3CC[C@@H](C2)N3C(c2cccc(F)c2)c2cn(CCc3ccccc3)nn2)c1 (stereo partly shown)
99
6. Cc1cncc(C(=O)N2C[C@H]3CC[C@@H](C2)N3C(c2cccc(F)c2)c2cn(C[S+]([O-])c3ccccc3)nn2)c1 (stereo partly shown)
100
7. Cc1cncc(C(=O)N2C[C@H]3CC[C@@H](C2)N3C(c2cccc(F)c2)c2cn(CCc3ccsc3)nn2)c1 (stereo partly shown)
101

* * *

- measurementNotes: in vivo
- appliedConditions: male, ICR, mouse, po, 10 mg/kg, MRT0-t, C5N17B+Ritonavir, PO 10 mg/kg, individual mice 1#-3#
reportedProperty: MRT last (h)

1. Cc1cncc(C(=O)N2C[C@H]3CC[C@@H](C2)N3[C@H](c2cccc(F)c2)c2cn(CCc3ccsc3)nn2)c1 [Compound C5N17B]
2.62

* * *

- System: SARS‐CoV‐2
- measurementNotes: microbe, parasite or virus in culture
- Assay type: cell-based
- appliedConditions: Severe acute respiratory syndrome coronavirus 2; Vero cells, without CP‐100356; read-out: EC50 ± SD, Vero cells, without P‐gp inhibitor
pEC50: −log10 of the molar value.
A collection of compounds and their measured pEC50
reportedProperty: pEC50

1. O=C(c1cccnc1)N1CCN(C(c2cccc(F)c2)c2cn(CCN3C(=O)c4ccccc4C3=O)nn2)CC1 (stereo not drawn)
< 4.16
2. CNC(=O)Cn1cc(C(c2cccc(F)c2)N2[C@@H]3CC[C@H]2CN(C(=O)c2cncc(C)c2)C3)nn1 (stereo partly drawn)
< 4.00
3. Cc1cncc(C(=O)N2C[C@H]3CC[C@@H](C2)N3C(c2cccc(F)c2)c2cn(CC(N)=O)nn2)c1 (stereo partly drawn)
< 4.00
